// provenance: patent US20210139581A1

- target_system: human CD33 on primary human monocyte-derived dendritic cells (human, UniProt P20138 18-364)
- Sequence (P20138 18-364): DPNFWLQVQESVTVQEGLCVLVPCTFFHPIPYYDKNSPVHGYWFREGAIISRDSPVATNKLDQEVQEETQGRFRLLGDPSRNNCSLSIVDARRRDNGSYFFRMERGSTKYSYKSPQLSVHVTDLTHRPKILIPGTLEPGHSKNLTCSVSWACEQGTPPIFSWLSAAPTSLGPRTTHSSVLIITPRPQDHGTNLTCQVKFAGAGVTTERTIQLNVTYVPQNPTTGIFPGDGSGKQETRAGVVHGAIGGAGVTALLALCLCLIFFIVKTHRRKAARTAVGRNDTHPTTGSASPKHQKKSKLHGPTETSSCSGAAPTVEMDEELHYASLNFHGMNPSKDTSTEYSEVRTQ
- protocol_text: cell-based or functional assay
Form field: Receptor downregulation (EC50) (one value per entry).
Respond with the bare value in pM.

For orientation, consider the following solved cases.
AB-64.7 (antibody, V domains shown) VH: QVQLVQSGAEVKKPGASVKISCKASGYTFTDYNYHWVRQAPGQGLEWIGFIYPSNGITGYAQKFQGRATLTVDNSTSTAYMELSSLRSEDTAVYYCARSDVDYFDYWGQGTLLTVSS VL: DIVLTQSPDSLAVSLGERATINCRASQSVGTSTYSYMHWYQQKPGQPPKLLIKYASNLNSGVPDRFSGSGSGTDFTLTISSLQAEDVAVYYCQHSEEIPLTFGQGTKLEIK
17
AB-64.2 (antibody, V domains shown) VH: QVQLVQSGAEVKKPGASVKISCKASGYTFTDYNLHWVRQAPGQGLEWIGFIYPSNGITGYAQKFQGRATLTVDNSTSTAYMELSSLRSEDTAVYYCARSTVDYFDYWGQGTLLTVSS VL: DIVLTQSPDSLAVSLGERATINCRVSQDVSTSTYSYMHWYQQKPGQPPKLLIKYASNLESGVPDRFSGSGSGTDFTLTISSLQAEDVAVYYCQHSWEIPLTFGQGTKLEIK
16.6
Chimeric Ab #2 (antibody, V domains shown, Chimeric Ab with a VH-FR3 mutation that removes the predicted N-glycosylation site) VH: EVQLQQSGPELVKPGASVKISCKASGYTFTDYNLHWVKLSHGKSLEWIGFIYPSNGITGYNQKFKNKATLTVDTSSSTAYMELRSLTSEDSAVYYCARSTVDYFDYWGQGTTLTVSS VL: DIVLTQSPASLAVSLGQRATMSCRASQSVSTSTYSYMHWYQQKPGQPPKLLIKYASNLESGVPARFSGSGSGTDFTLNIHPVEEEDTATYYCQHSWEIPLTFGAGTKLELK
119

Now consider a different binder.
I have this binder here, AB-64.1.8 (antibody, V domains shown, Variant of AB-64.1) VH: QVQLVQSGAEVKKPGASVKISCKASGYTFTDYNLHWVRQAPGQGLEWIGFIYPSNQITGYAQKFQGRATLTVDNSASTAYMELSSLRSEDTAVYYCARSDVDYFDYWGQGTLLTVSS VL: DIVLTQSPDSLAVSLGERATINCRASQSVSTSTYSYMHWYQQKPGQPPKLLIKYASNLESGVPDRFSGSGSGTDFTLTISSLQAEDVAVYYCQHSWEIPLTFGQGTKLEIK , and I need its recorded Receptor downregulation (EC50). 28.2
